# Tested on: thrombocyte aggregation (platelet-rich plasma of healthy test persons)
# test_name: Collagen-induced thrombocyte (platelet) aggregation in platelet-rich plasma, method of Born and Cross
# Type: cell-based, human
# assay_setup: Homo sapiens, 10 min, sodium citrate, 10 minutes incubation at 37° C., read-out: EC50 (50% change in optical density, inhibition of collagen-induced aggregation)
# Procedure: Thrombocyte aggregation was measured according to the method of Born and Cross [J. Physiol. 170, 397 (1964)]in platelet-rich plasma of healthy test persons. To inhibit coagulation, the blood was mixed with sodium citrate in a volume ration of 1:10. After addition of the aggregation-inducing substance, the rate of decrease in optical density of the platelet suspension is measured photometrically and recorded. The rate of aggregation was determined from the angle of inclination of the density curve. […]
Threshold-based label: EC50 under 300 nM gives MET, EC50 not under 300 nM gives NOT MET.

Field: example entries. Status: answers known.
[[record]]
compound = "[O-][S+]1CCN(c2nc(N(CCO)CCO)nc3c(OCc4ccccc4)ncnc23)CC1 [N]"
assigned_class = "MET"

[[record]]
compound = "[O-][S+]1CCN(c2nc(N(CCO)CCO)nc3c(SCc4ccccc4)ncnc23)CC1 [D]"
assigned_class = "MET"

[[record]]
compound = "[O-][S+]1CCN(c2nc(NCCO)nc3c(NCc4ccc(Cl)cc4)ncnc23)CC1 [K]"
assigned_class = "MET"

[[record]]
compound = "CCCSc1ncnc2c(N3CC[S+]([O-])CC3)nc(NCCO)nc12 [A]"
assigned_class = "NOT MET"


*Q* Does the reported EC50 of CC(C)CCOc1ncnc2c(N3CC[S+]([O-])CC3)nc(N(CCO)CCO)nc12 [M] stay below 300 nM?
*A* NOT MET

====

# Test system: thrombocyte aggregation (platelet-rich plasma of healthy test persons)
# test_name: Collagen-induced thrombocyte (platelet) aggregation in platelet-rich plasma, method of Born and Cross
# Format: cell-based, human
# assay_setup: Homo sapiens, 10 min, sodium citrate, 10 minutes incubation at 37° C., read-out: EC50 (50% change in optical density, inhibition of collagen-induced aggregation)
pEC50: −log10 of the molar value.
Parameter threshold = 7. Response is MET when pEC50 meets or exceeds it, else NOT MET.

[[record]]
compound = "COCCN(CCO)c1nc(N2CC[S+]([O-])CC2)c2ncnc(SCc3ccccc3)c2n1"
assigned_class = "MET"


*Q* Please check the record `[O-][S+]1CCN(c2nc(N(CCO)CCO)nc3c(OCCCc4ccccc4)ncnc23)CC1` and state if its pEC50 is at or above 7.
*A* NOT MET

*Q* Please check the record `[O-][S+]1CCN(c2nc(NCCO)nc3c(SCc4ccccc4)ncnc23)CC1` and state if its pEC50 is at or above 7.
*A* MET

*Q* Please check the record `[O-][S+]1CCN(c2nc(NCCO)nc3c(SCc4ccco4)ncnc23)CC1` and state if its pEC50 is at or above 7.
*A* MET

*Q* Please check the record `[O-][S+]1CCN(c2nc(N(CCO)CCO)nc3c(N4CCCCC4)ncnc23)CC1` and state if its pEC50 is at or above 7.
*A* NOT MET

*Q* Please check the record CSc1ccc(C(C)Sc2ncnc3c(N4CC[S+]([O-])CC4)nc(NCCO)nc23)cc1 (stereo not drawn) and state if its pEC50 is at or above 7.
*A* MET

*Q* Please check the record `[O-][S+]1CCN(c2nc(NCCO)nc3c(SC4CCCCC4)ncnc23)CC1` and state if its pEC50 is at or above 7.
*A* MET

*Q* Please check the record `CCCCN(CC)c1ncnc2c(N3CC[S+]([O-])CC3)nc(NCCO)nc12` and state if its pEC50 is at or above 7.
*A* NOT MET

*Q* Please check the record `COCCN(CCO)c1nc(N2CC[S+]([O-])CC2)c2ncnc(OCc3ccccc3)c2n1` and state if its pEC50 is at or above 7.
*A* NOT MET
